Consider the following binders and their measured GLP-1 activity (EC50, pM) readings.
- tested_system: GLP-1R (on GLP-1R/CHO cells, DiscoverX 95-0062C2) (UniProt P43220 24-463)
- Sequence (P43220 24-463 limits assumed): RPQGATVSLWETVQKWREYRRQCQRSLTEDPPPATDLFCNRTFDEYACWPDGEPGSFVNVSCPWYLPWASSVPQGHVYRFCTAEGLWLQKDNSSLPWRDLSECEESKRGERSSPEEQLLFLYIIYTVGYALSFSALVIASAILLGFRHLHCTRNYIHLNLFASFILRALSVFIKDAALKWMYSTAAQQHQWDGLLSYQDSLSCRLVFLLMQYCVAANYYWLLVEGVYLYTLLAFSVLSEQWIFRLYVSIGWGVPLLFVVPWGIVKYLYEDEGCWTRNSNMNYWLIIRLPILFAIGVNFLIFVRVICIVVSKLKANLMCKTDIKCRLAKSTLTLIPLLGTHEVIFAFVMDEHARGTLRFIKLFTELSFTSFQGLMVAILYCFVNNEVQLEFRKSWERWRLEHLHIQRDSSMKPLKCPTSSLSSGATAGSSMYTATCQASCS
- method_description: cell-based or functional assay
Numbered stars: 1 amine (or outer) side, 2 acyl side, 3 side chain; on linkers, the order of the positions; unused ones are H or OH. Side chains are listed from the residue outwards. Ends that are not written are not given here. * marks the point of attachment. mPEG 3.4 kDa = 3.4 kDa maleimidated PEG on Cys; C18 diacid = O=C(O)CCCCCCCCCCCCCCCCC(=O)*; γGlu = O=C(O)[C@H](CCC(=O)[*:2])N[*:1]; Palmitoyl = CCCCCCCCCCCCCCCC(=O)*
quantity_kind: GLP-1 activity (EC50, pM)

                                     binder              quantity_kind  measured
0  HGEGTFTSDLSTYLDALAARDFINWLIQTKITDKK(Palmitoyl) [HU020K2FA]  GLP-1 activity (EC50, pM)      30.1
1  HGEGTFTSDLSTYLDALAAC(mPEG 3.4 kDa)DFINWLIQTKITDKK([γGlu-Palmitoyl]) [HU020M6]  GLP-1 activity (EC50, pM)      45.7
2  HGEGTFTSDLSTYLDALAARDFINWLIQTKITDKK([γGlu-C18 diacid]) [HU020M1]  GLP-1 activity (EC50, pM)       113
3  HGEGTFTSDLSTYLDALAARDFINWLIQTKITD [HU020]  GLP-1 activity (EC50, pM)      4.15
